B1: CHIT1 (parent)
chain: CSWKGATKQRIQDQKVPYIFRDNQ

Variants of: B1
TEST_METHOD_NOTES: protein stability index of a GFP-peptide fusion (GPS, HEK-293T) (PSI 1-6); higher = more stable;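 further: lentivirally expressed fusions sorted by FACS into six bins by GFP to DsRed ratio, PSI derived from sequencing read proportions per bin multiplied by bin number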
MEASUREMENT_CONTEXT: c terminus: a fixed tail appended
ASSAY_READOUT: protein stability index
Answer as a number with no unit attached.

Q: Consider the variant shown here: "N23H" What is its recorded protein stability index?
Ans: 1.99

Q: Consider the variant shown here: "N23C" What is its recorded protein stability index?
Ans: 1.91

Q: Consider the variant shown here: "D13P" What is its recorded protein stability index?
Ans: 1.83

Q: Consider the variant shown here: "A6Q" What is its recorded protein stability index?
Ans: 2.54

Q: Consider the variant shown here: "Q14I" What is its recorded protein stability index?
Ans: 2.35

Q: Consider the variant shown here: "A6G" What is its recorded protein stability index?
Ans: 1.82

Q: Consider the variant shown here: "A6V" What is its recorded protein stability index?
Ans: 2.25

Q: Consider the variant shown here: "G5T" What is its recorded protein stability index?
Ans: 2.53

Q: Consider the variant shown here: "K15M" What is its recorded protein stability index?
Ans: 2.28

Q: Consider the variant shown here: "Q24F" What is its recorded protein stability index?
Ans: 2.01

Q: Consider the variant shown here: "G5L" What is its recorded protein stability index?
Ans: 2.77

Q: Consider the variant shown here: "R10D" What is its recorded protein stability index?
Ans: 2.71

Q: Consider the variant shown here: "F20C" What is its recorded protein stability index?
Ans: 3.11

Q: Consider the variant shown here: "P17D" What is its recorded protein stability index?
Ans: 3.36

Q: Consider the variant shown here: "Q9K" What is its recorded protein stability index?
Ans: 2.44

Q: Consider the variant shown here: "S2P" What is its recorded protein stability index?
Ans: 3.02

Q: Consider the variant shown here: "V16C" What is its recorded protein stability index?
Ans: 3.13

Q: Consider the variant shown here: "Q24Y" What is its recorded protein stability index?
Ans: 1.61

Q: Consider the variant shown here: "R21C" What is its recorded protein stability index?
Ans: 2.11

Q: Consider the variant shown here: "I11S" What is its recorded protein stability index?
Ans: 3.01

Q: Consider the variant shown here: "D13W" What is its recorded protein stability index?
Ans: 1.25

Q: Consider the variant shown here: "Q9E" What is its recorded protein stability index?
Ans: 2.42

Q: Consider the variant shown here: "K15T" What is its recorded protein stability index?
Ans: 2.48

Q: Consider the variant shown here: "R10F" What is its recorded protein stability index?
Ans: 2.5

Q: Consider the variant shown here: "V16T" What is its recorded protein stability index?
Ans: 2.37

Q: Consider the variant shown here: "T7P" What is its recorded protein stability index?
Ans: 2.74

Q: Consider the variant shown here: "K4S" What is its recorded protein stability index?
Ans: 2.6

Q: Consider the variant shown here: "N23L" What is its recorded protein stability index?
Ans: 1.89

Q: Consider the variant shown here: "R10E" What is its recorded protein stability index?
Ans: 3.87

Q: Consider the variant shown here: "A6N" What is its recorded protein stability index?
Ans: 2.83

Q: Consider the variant shown here: "D13K" What is its recorded protein stability index?
Ans: 1.84

Q: Consider the variant shown here: "Q12A" What is its recorded protein stability index?
Ans: 2.67

Q: Consider the variant shown here: "D22E" What is its recorded protein stability index?
Ans: 2.44

Q: Consider the variant shown here: "A6Y" What is its recorded protein stability index?
Ans: 2.31

Q: Consider the variant shown here: "R21M" What is its recorded protein stability index?
Ans: 2.44

Q: Consider the variant shown here: "Q24L" What is its recorded protein stability index?
Ans: 2.31

Q: Consider the variant shown here: "W3T" What is its recorded protein stability index?
Ans: 3.23

Q: Consider the variant shown here: "V16E" What is its recorded protein stability index?
Ans: 2.85

Q: Consider the variant shown here: "C1T" What is its recorded protein stability index?
Ans: 2.79

Q: Consider the variant shown here: "R10N" What is its recorded protein stability index?
Ans: 3.46

Q: Consider the variant shown here: "R21Y" What is its recorded protein stability index?
Ans: 2.72

Q: Consider the variant shown here: "N23P" What is its recorded protein stability index?
Ans: 2.38

Q: Consider the variant shown here: "K4W" What is its recorded protein stability index?
Ans: 2.12

Q: Consider the variant shown here: "A6R" What is its recorded protein stability index?
Ans: 2.73

Q: Consider the variant shown here: "A6P" What is its recorded protein stability index?
Ans: 3.05

Q: Consider the variant shown here: "D22L" What is its recorded protein stability index?
Ans: 2.06

Q: Consider the variant shown here: "K15D" What is its recorded protein stability index?
Ans: 3.09

Q: Consider the variant shown here: "C1K" What is its recorded protein stability index?
Ans: 3.36

Q: Consider the variant shown here: "D13A" What is its recorded protein stability index?
Ans: 2.81

Q: Consider the variant shown here: "Q12G" What is its recorded protein stability index?
Ans: 2.31

Q: Consider the variant shown here: "G5N" What is its recorded protein stability index?
Ans: 2.69

Q: Consider the variant shown here: "C1F" What is its recorded protein stability index?
Ans: 1.75

Q: Consider the variant shown here: "Q9R" What is its recorded protein stability index?
Ans: 2.37

Q: Consider the variant shown here: "K8A" What is its recorded protein stability index?
Ans: 2.58

Q: Consider the variant shown here: "K4T" What is its recorded protein stability index?
Ans: 2.49

Q: Consider the variant shown here: "T7W" What is its recorded protein stability index?
Ans: 1.12

Q: Consider the variant shown here: "A6I" What is its recorded protein stability index?
Ans: 2.32

Q: Consider the variant shown here: "K8E" What is its recorded protein stability index?
Ans: 3.19

Q: Consider the variant shown here: "V16Q" What is its recorded protein stability index?
Ans: 3.07

Q: Consider the variant shown here: "T7I" What is its recorded protein stability index?
Ans: 2.3

Q: Consider the variant shown here: "Q14M" What is its recorded protein stability index?
Ans: 2.21

Q: Consider the variant shown here: "D13T" What is its recorded protein stability index?
Ans: 2.56

Q: Consider the variant shown here: "I11W" What is its recorded protein stability index?
Ans: 2.07

Q: Consider the variant shown here: "R21W" What is its recorded protein stability index?
Ans: 1.87

Q: Consider the variant shown here: "Q24H" What is its recorded protein stability index?
Ans: 2.06

Q: Consider the variant shown here: "V16Y" What is its recorded protein stability index?
Ans: 1.95

Q: Consider the variant shown here: "W3E" What is its recorded protein stability index?
Ans: 4.03

Q: Consider the variant shown here: "S2C" What is its recorded protein stability index?
Ans: 2.06

Q: Consider the variant shown here: "Q12S" What is its recorded protein stability index?
Ans: 2.6

Q: Consider the variant shown here: "Y18K" What is its recorded protein stability index?
Ans: 3.34

Q: Consider the variant shown here: "F20E" What is its recorded protein stability index?
Ans: 3.99

Q: Consider the variant shown here: "G5E" What is its recorded protein stability index?
Ans: 3.34

Q: Consider the variant shown here: "Q14W" What is its recorded protein stability index?
Ans: 1.99

Q: Consider the variant shown here: "V16R" What is its recorded protein stability index?
Ans: 2.31

Q: Consider the variant shown here: "S2Q" What is its recorded protein stability index?
Ans: 1.93

Q: Consider the variant shown here: "N23S" What is its recorded protein stability index?
Ans: 2.2

Q: Consider the variant shown here: "R10W" What is its recorded protein stability index?
Ans: 1.67
